Exercise: for every item that follows, state its recorded MIC.
# Test system: Pseudomonas aeruginosa
# protocol.text: Antibacterial activity against Pseudomonas aeruginosa PAO1 assessed as reduction in bacterial growth incubated for 18 hrs by two-fold serial dilution method
# Assay type: functional
The response must be a number in µg/mL with no trailing unit.

Ask: Would you kindly share the measured MIC for COc1ccc(C(=O)CSC(=S)N/N=C(\C)c2cc3ccccc3o2)cc1 ?
Reply: 512

Ask: Would you kindly share the measured MIC for O=CC(/N=N/c1ccc([N+](=O)[O-])cc1)=C(\O)c1cc2ccccc2o1 ?
Reply: 512

Ask: Would you kindly share the measured MIC for Cc1ccc(/N=N/C(C=O)=C(/O)c2cc3ccccc3o2)cc1 ?
Reply: 512

Reference source for all entries: ChEMBL document CHEMBL4680335
